test.target: T1, HLA-B*44:05 (human)
T1 construct: Peptide-receptive MHC class I monomer after UV cleavage of a UV-sensitive ligand
method.description: UV-ligand exchange, anti-b2m ELISA; peptide exchange yield grade

binder	peptide exchange yield
TDFTKIASF	≥ 75%
TEGDFTKEASTY	50 to 75%
AESLAVHDI	50 to 75%
LENMYDLTF	≥ 75%
DETHTLQF	≥ 75%
DETIWYVRF	≥ 75%
KPREEQYDSTY	≥ 75%
AEFFDYTVRTL	≥ 75%
RDATASLW	≥ 75%
